Ref: patent US9771316B2

- experimental_target: human LAT-2 (Homo sapiens (Human), UniProt Q9UHI5)
- Sequence (Q9UHI5 whole entry): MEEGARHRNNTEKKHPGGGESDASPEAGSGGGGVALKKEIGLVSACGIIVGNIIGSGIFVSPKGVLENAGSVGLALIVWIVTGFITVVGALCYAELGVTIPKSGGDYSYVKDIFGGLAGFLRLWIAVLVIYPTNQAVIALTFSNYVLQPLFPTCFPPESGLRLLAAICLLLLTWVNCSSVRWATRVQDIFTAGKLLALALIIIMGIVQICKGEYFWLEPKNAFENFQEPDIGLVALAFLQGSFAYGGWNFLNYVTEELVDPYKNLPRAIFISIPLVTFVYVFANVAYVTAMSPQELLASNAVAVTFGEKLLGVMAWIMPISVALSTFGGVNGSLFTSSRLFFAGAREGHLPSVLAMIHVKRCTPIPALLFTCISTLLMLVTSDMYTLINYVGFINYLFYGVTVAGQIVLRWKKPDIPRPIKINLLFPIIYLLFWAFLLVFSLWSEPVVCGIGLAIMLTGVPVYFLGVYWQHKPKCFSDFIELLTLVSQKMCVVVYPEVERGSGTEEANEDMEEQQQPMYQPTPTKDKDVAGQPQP
- Sequence (P08195 102-630 partner): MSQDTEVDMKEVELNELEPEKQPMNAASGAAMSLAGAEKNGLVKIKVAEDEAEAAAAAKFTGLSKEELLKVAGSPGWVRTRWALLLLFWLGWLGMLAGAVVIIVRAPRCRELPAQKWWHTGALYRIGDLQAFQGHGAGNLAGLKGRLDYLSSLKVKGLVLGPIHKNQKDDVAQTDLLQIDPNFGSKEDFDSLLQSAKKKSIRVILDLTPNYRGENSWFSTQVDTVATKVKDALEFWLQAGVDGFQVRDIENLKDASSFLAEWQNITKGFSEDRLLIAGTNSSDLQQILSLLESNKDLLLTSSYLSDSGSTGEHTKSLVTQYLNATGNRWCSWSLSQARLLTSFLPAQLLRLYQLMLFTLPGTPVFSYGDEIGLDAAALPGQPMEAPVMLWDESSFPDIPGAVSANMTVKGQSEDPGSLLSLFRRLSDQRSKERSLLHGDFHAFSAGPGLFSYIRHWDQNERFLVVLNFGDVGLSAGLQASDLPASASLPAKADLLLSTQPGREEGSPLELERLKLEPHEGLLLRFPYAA
- assay_info: Inhibition of [14C] amino acid uptake into human LAT-2 stably expressing HEK293 cell line (uptake buffer, 1 min)
- study_conditions: HEK293 human LAT-2 stably expressing cells; Na+-free HBSS pH7.4; [14C]L-leucine or alanine 1 μM, uptake 1 min; read-out: LAT-2 inhibitory activity/IC50
Where a name gives a salt, the structure may show the parent alone.
The following molecules are shown together with reported IC50 values.
Answer with a number only, understood to be in µM.

NCCCC[C@H](Oc1ccc(C(F)(F)F)cc1)c1ccccc1 [Example 67, fumarate]: 207

Suppose we examine the molecule NCCCCC(Oc1ccc(C(F)(F)F)cc1)c1ccccc1 (stereo not drawn) ; what IC50 value has been reported?
146

Same for NCCCCC(Oc1ccc(OC(F)(F)F)cc1)c1ccccc1 (stereo not drawn)
169

What do we get for NCCCCC(Oc1ccc(C(F)(F)F)cc1)c1cccc(F)c1 (stereo not drawn) ?
100

Try the molecule CCC(C)c1ccc(OC(CCCCN)c2cccs2)cc1 (stereo not drawn)
261

And NCCCCC(Oc1ccc(C(F)(F)F)c(F)c1)c1ccccc1 (stereo not drawn) ?
218
